Biological target: UniProt Q9H3R0
Sequence (Q9H3R0 whole entry): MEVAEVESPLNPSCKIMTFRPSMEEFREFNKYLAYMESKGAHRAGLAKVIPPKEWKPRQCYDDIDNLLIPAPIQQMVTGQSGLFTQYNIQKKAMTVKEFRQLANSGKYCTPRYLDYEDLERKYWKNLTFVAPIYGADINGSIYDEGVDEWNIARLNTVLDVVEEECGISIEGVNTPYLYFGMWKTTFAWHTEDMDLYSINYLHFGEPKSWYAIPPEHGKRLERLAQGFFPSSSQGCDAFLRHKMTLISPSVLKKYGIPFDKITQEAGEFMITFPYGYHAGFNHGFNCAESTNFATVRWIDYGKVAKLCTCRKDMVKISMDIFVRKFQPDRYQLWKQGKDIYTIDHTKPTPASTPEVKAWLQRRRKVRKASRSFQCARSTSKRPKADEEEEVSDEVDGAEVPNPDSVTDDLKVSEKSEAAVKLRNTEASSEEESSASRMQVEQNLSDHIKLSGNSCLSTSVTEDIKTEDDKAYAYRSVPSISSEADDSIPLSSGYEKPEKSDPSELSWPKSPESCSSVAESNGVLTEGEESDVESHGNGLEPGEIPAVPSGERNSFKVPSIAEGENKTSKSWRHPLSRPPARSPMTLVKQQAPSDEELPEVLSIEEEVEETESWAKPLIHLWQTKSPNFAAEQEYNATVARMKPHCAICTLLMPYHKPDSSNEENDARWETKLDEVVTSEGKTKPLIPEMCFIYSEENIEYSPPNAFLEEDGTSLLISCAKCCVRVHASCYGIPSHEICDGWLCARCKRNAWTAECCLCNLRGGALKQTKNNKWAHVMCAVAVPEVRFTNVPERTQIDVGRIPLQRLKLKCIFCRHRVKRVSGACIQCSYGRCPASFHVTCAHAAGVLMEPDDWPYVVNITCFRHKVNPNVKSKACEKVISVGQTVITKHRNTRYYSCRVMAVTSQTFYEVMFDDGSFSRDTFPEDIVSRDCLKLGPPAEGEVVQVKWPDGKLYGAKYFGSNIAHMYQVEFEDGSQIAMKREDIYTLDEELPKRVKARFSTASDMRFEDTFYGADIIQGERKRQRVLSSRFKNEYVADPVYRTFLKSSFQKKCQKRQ
Assay: JMJD2C Assay: The ability of test compounds to inhibit the activity of JMJD2C was determined in 384-well plate-format under the following reaction conditions: 0.3 nM JMJD2C, 300 nM H3K9me3-biotin labeled peptide (Anaspec cat #64360), 2 μM alpha-ketoglutaric acid in assay buffer of 50 mM HEPES, pH 7.3, 0.005% Brij35, 0.5 mM TCEP, 0.2 mg/ml BSA, 50 μM sodium L-ascorbate, and 2 μM ammonium iron(II) sulfate. Reaction product was determined quantitatively by TR-FRET after the addition of detection reagent Phycolink Streptavidin-allophycocyanin (Prozyme) and Europium-anti-di-methylated histone H3 lysine 9 (H3K9me2) antibody (PerkinElmer) in the presence of 5 mM EDTA in LANCE detection buffer (PerkinElmer) at a final concentration of 50 nM and 1 nM, respectively.The assay reaction was initiated by the following: 2 μl of the mixture of 900 nM H3K9me3-biotin labeled peptide and 6 μM alpha-ketoglutaric acid with 2 μl of 11-point serial diluted inhibitor in 3% DMSO were added to each well of the plate, followed by the addition of 2 μl of 0.9 nM JMJD2C to initiate the reaction. The reaction mixture was incubated at room temperature for 30 min, and terminated by the addition of 6 μl of 5 mM EDTA in LANCE detection buffer containing 100 nM Phycolink Streptavidin-allophycocyanin and 2 nM Europium-anti-H3K9me2 antibody. Plates were read by EnVisionMultilabel Reader in TR-FRET mode (excitation at 320 nm, emission at 615 nm and 665 nm) after 1 hr incubation at room temperature. A ratio was calculated (665/615) for each well and fitted to determine inhibition constant (IC50).
OBSERVED_PROPERTY: IC50

For the molecule "CC(C)N1CCN(c2cccc(N(C)c3ccc(Oc4nc(O)c5ccncc5n4)cc3)c2)CC1" , give its reported IC50. < 100 nM
